Origin of values: patent US20240252488A1

pKd: −log10 of the molar value.
// MLKL (Homo sapiens) pKd records
quantity-name: pKd

{"compound": "Nc1ncc(-c2cnn(C3CCN(CCC4CCN(C(=O)c5ccc6c(c5)CN(C5CCC(=O)NC5=O)C6=O)CC4)CC3)c2)nc1C(=O)O[C@@H](C(=O)Nc1ccc(F)cc1)c1ccccc1 (some centres unmarked)", "reading": 9.37}
{"compound": "Nc1ncc(-c2cnn([C@H]3CCN(CCOCCOCCNC(=O)COc4ccc5c(c4)C(=O)N(C4CCC(=O)NC4=O)C5=O)C3)c2)nc1C(=O)OC(C(=O)Nc1ccc(F)cc1)c1ccccc1 (some centres unmarked)", "reading": 8.22}
{"compound": "Nc1ncc(-c2cnn(C3CCN(C(=O)c4cn(C5CCN(c6cccc7c6C(=O)N(C6CCC(=O)NC6=O)C7=O)CC5)cn4)CC3)c2)nc1C(=O)O[C@@H](C(=O)Nc1ccc(F)cc1)c1ccccc1 (some centres unmarked)", "reading": 8.28}

[I] Nc1ncc(-c2cnn(C3CCN(C(=O)COC4CCN(C(=O)COc5ccc6c(c5)C(=O)N(C5CCC(=O)NC5=O)C6=O)CC4)CC3)c2)nc1C(=O)O[C@@H](C(=O)Nc1ccc(F)cc1)c1ccccc1 (some centres unmarked)
[II] Nc1ncc(-c2cnn(C3CCN(C(=O)COCCOCCNC(=O)C4CN(c5ccc6c(c5)C(=O)N(C5CCC(=O)NC5=O)C6=O)C4)CC3)c2)nc1C(=O)O[C@@H](C(=O)Nc1ccc(F)cc1)c1ccccc1 (some centres unmarked)
Between item I and item II , which reported pKd is smaller? Please respond with the label that marks your chosen entry.
II

----------
# tgt: UniProt Q8NB16
# Sequence (Q8NB16 1-471): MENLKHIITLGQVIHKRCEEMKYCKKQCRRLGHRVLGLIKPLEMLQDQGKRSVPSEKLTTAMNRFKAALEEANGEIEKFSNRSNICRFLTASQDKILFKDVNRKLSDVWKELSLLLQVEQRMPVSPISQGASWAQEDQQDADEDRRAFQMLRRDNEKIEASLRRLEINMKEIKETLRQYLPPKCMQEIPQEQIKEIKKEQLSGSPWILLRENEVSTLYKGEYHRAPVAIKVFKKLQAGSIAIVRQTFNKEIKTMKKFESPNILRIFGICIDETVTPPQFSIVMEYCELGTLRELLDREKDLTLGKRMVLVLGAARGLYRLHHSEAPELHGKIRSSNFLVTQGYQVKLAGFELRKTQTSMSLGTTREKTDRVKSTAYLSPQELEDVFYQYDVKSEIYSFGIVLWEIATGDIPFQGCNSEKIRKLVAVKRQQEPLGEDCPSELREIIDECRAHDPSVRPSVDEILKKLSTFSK
# assay-method-text: MLKL degradation assay in HepG2 cell line (western blot)
# Format: cell-based
# Parameters: endogenous in cells; host or cells: HepG2 or HaCaT
# cond: compound 1 μM; cell line not given
quantity-name: Degradation assay (Degradation %) 1 μM

{"molecule": "Nc1ncc(-c2cnn(C3CCN(CCC4CCN(C(=O)C5CCN(C6=CC(=O)N(C7CCC(=O)NC7=O)C6=O)CC5)CC4)CC3)c2)nc1C(=O)O[C@@H](C(=O)Nc1ccc(F)cc1)c1ccccc1 (stereo partly shown)", "reading": 89.35}
{"molecule": "Nc1ncc(-c2cnn(C3CCN(CCOC4CCN(C(=O)CCc5ccc6c(c5)C(=O)N(C5CCC(=O)NC5=O)C6=O)CC4)CC3)c2)nc1C(=O)O[C@@H](C(=O)Nc1ccc(F)cc1)c1ccccc1 (stereo partly shown)", "reading": 69.78}

[1] Nc1ncc(-c2cnn(C3CCN(C(=O)CCC4CCN(C(=O)C5CCN(c6ccc7c(c6)C(=O)N(C6CCC(=O)NC6=O)C7=O)CC5)CC4)CC3)c2)nc1C(=O)O[C@@H](C(=O)Nc1ccc(F)cc1)c1ccccc1 (stereo partly shown)
[2] Nc1ncc(-c2cnn(C3CCN(CCOCCOCCOCCNC(=O)C4CN(c5cccc6c5C(=O)N(C5CCC(=O)NC5=O)C6=O)C4)CC3)c2)nc1C(=O)O[C@@H](C(=O)Nc1ccc(F)cc1)c1ccccc1 (stereo partly shown)
Just curious, which one has the larger Degradation assay (Degradation %) 1 μM reading, 1 or 2 ? Please respond with the label that marks your chosen entry.
1

----------
# System: FADD−/− Jurkat cells
# assay-method-text: Necroptosis inhibition assay, TNF-α-induced necroptosis (CellTiter-Glo 2.0)
# Assay type: cell-based, human
# cond: compound 1 μM; TNF-α 15 ng/mL
quantity-name: Necroptosis inhibition assay (Rescue %) 1 μM
Give just the numeric value; % need not be written.

{"molecule": "Nc1ncc(-c2ccc(N3CCN(CCOCCOCCNC(=O)C4CCN(c5ccc6c(c5)C(=O)N(C5CCC(=O)NC5=O)C6=O)CC4)CC3)nc2)nc1C(=O)OC(C(=O)Nc1ccc(F)cc1)c1ccccc1 (stereo not shown) [TDH-258]", "tgt": "FADD−/− Jurkat cells", "display-unit": "%", "reading": 33.73}
{"molecule": "Nc1ncc(-c2cnn(C3CCN(CCCN4CCN(C(=O)CCc5cccc6c5CN(C5CCC(=O)NC5=O)C6=O)CC4)CC3)c2)nc1C(=O)O[C@@H](C(=O)Nc1ccc(F)cc1)c1ccccc1 (stereo partly shown) [TDH-386]", "tgt": "FADD−/− Jurkat cells", "display-unit": "%", "reading": 34.89}
{"molecule": "Nc1ncc(-c2cnn(C3CCN(CCOCCOCCOCCNC(=O)CNc4ccc5c(c4)C(=O)N(C4CCC(=O)NC4=O)C5=O)CC3)c2)nc1C(=O)O[C@@H](C(=O)Nc1ccc(F)cc1)c1ccccc1 (stereo partly shown) [TDH-144]", "tgt": "FADD−/− Jurkat cells", "display-unit": "%", "reading": 15.23}
{"molecule": "Nc1ncc(-c2cnn(C3CCN(CCCCCCNC(=O)C4CN(c5cccc6c5C(=O)N(C5CCC(=O)NC5=O)C6=O)C4)CC3)c2)nc1C(=O)O[C@@H](C(=O)Nc1ccc(F)cc1)c1ccccc1 (stereo partly shown) [TDH-113]", "tgt": "FADD−/− Jurkat cells", "display-unit": "%", "reading": 24.96}
{"molecule": "Nc1ncc(-c2cnn(C3CCN(CCC4CCN(C(=O)CNc5cccc6c5C(=O)N(C5CCC(=O)NC5=O)C6=O)CC4)CC3)c2)nc1C(=O)O[C@@H](C(=O)Nc1ccc(F)cc1)c1ccccc1 (stereo partly shown) [TDH-198]", "tgt": "FADD−/− Jurkat cells", "display-unit": "%", "reading": 79.13}

State the recorded Necroptosis inhibition assay (Rescue %) 1 μM for this entry: Nc1ncc(-c2cnn(C3CCN(CCC4CCN(c5cccc6c5C(=O)N(C5CCC(=O)NC5=O)C6=O)CC4)CC3)c2)nc1C(=O)O[C@@H](C(=O)Nc1ccc(F)cc1)c1ccccc1 (stereo partly shown) [TDH-202]
60.16

State the recorded Necroptosis inhibition assay (Rescue %) 1 μM for this entry: Nc1ncc(-c2cnn(C3CCN(CCC4CCN(C(=O)COc5ccc6c(c5)C(=O)N(C5CCC(=O)NC5=O)C6=O)CC4)CC3)c2)nc1C(=O)O[C@@H](C(=O)Nc1ccc(F)cc1)c1ccccc1 (stereo partly shown) [TDH-201]
91.53

State the recorded Necroptosis inhibition assay (Rescue %) 1 μM for this entry: Nc1ncc(-c2cnn(C3CCN(CC4CCN(C(=O)COc5cccc6c5C(=O)N(C5CCC(=O)NC5=O)C6=O)CC4)CC3)c2)nc1C(=O)O[C@@H](C(=O)Nc1ccc(F)cc1)c1ccccc1 (stereo partly shown) [TDH-148]
54.25

State the recorded Necroptosis inhibition assay (Rescue %) 1 μM for this entry: Nc1ncc(-c2cnn(C3CCN(CCCN4CCN(c5cccc6c5C(=O)N(C5CCC(=O)NC5=O)C6=O)CC4)CC3)c2)nc1C(=O)OC(C(=O)Nc1ccc(F)cc1)c1ccccc1 (stereo not shown) [TDH-245]
65.75

State the recorded Necroptosis inhibition assay (Rescue %) 1 μM for this entry: Nc1ncc(-c2cnn(C3CCN(CCOC4CCN(C(=O)CCc5ccc6c(c5)C(=O)N(C5CCC(=O)NC5=O)C6=O)CC4)CC3)c2)nc1C(=O)O[C@@H](C(=O)Nc1ccc(F)cc1)c1ccccc1 (stereo partly shown) [TDH-379]
36.70

----------
// MLKL (Homo sapiens, UniProt Q8NB16) pKd records
pKd: −log10 of the molar value.
quantity-name: pKd

{"compound": "Nc1ncc(-c2cnn(C3CCN(CCCCCCCCCCNc4ccc5nnn(C6CCC(=O)NC6=O)c(=O)c5c4)CC3)c2)nc1C(=O)O[C@@H](C(=O)Nc1ccc(F)cc1)c1ccccc1 (stereo partly shown)", "quantity-name": "pKd", "reading": 7.51}

[a] Nc1ncc(-c2cn(C3CCN(CC4CCN(C(=O)C5CCN(c6ccc7c(c6)C(=O)N(C6CCC(=O)NC6=O)C7=O)CC5)CC4)CC3)nn2)nc1C(=O)OC(C(=O)Nc1ccc(F)cc1)c1ccccc1 (stereo not shown)
[b] COc1ccc(C(=O)N2CCC(CN3CCC4(CC3)CC(N3CCC(n5cc(-c6cnc(N)c(C(=O)O[C@@H](C(=O)Nc7ccc(F)cc7)c7ccccc7)n6)cn5)CC3)C4)CC2)cc1N1CCC(=O)NC1=O
[c] Nc1ncc(-c2cnn(C3CCN(CCOCCNC(=O)C4CCN(c5ccc6c(c5)C(=O)N(C5CCC(=O)NC5=O)C6=O)CC4)CC3)c2)nc1C(=O)O[C@@H](C(=O)Nc1ccc(F)cc1)c1ccccc1 (stereo partly shown)
Ordering criterion: pKd; begin with the maximum. Please respond by ranking the labels in the order requested.
b, c, a
(b: 9.39, c: 8.15, a: 7.57)
